absorption maximum values for the compounds below.
Experiment summary: solvent given as SMILES
Study conditions: in CC(C)=O
Measured property: absorption maximum

>>> recorded_value("CCC1=C(C)C(=O)n2c1cc1c(C)c(CC(=O)OC)c(C)n1c2=O")
"413 nm"
>>> recorded_value("Oc1ccccc1/N=C/c1ccccc1Oc1ccccc1")
"366 nm"
>>> recorded_value("c1ccc(N2c3ccccc3Sc3cc(-c4cccc5nc6ccccc6cc45)ccc32)cc1")
"407 nm"
>>> recorded_value("Cc1ccccc1C(=O)NN1C2=C(CC3=C1CC(C)(C)CC3=O)C(=O)CC(C)(C)C2")
"368 nm"
>>> recorded_value("COC(=O)C(Cc1ccc2oc(-c3ccc(-n4c5ccccc5c5ccccc54)cc3)nc2c1)NC(=O)OC(C)(C)C (stereo not given)")
"340.7 nm"
>>> recorded_value("CCCCCCCCCCCCCCCC[n+]1ccc(/C=C/c2ccccc2O)cc1")
"547 nm"
>>> recorded_value("CCCCC1=Cc2c3ccc4cccc5ccc(c6cc(-c7ccccc7)n(c26)P1(=O)c1ccccc1)c3c45 (stereo not given)")
"427 nm"
>>> recorded_value("CCCCCCCCCCCCC1(CCCCCCCCCCCC)c2cc(-c3ccc(C=C4C(=O)c5ccccc5C4=O)cc3)ccc2-c2ccc(-c3ccc(C=C4C(=O)c5ccccc5C4=O)cc3)cc21")
"429 nm"
>>> recorded_value("Cc1ccc(-c2cc(-c3ccccc3)c3c(N)nc(N4CCCC4)c(C#N)c3n2)cc1")
"414 nm"
>>> recorded_value("CCCCCCOc1ccc(N(c2ccc(OCCCCCC)cc2)c2ccc(-c3sc(-c4ccc(N(c5ccc(OCCCCCC)cc5)c5ccc(OCCCCCC)cc5)cc4)c4nc(-c5ccccc5)c(-c5ccccc5)nc34)cc2)cc1")
"592 nm"
